The reported numbers originate from the Kinase Knowledgebase extract (Sharma et al. 2016).

Molecular target: UniProt:Q16539
QUANTITY KIND: IC50

| COMPOUND | IC50 |
| --- | --- |
| O=c1c(Br)c(OCc2ccccc2)cnn1-c1c(Cl)cccc1Cl | 0.1 to 20 µM |
| O=c1c(Br)c(OCCc2ccccc2)cnn1CCO | > 100 µM |
| O=C(O)C(Nc1cnn(-c2c(Cl)cccc2Cl)c(=O)c1Br)c1ccccc1 (stereo unspecified) | > 100 µM |

IC50 on UniProt:Q16539 for O=c1c(Br)c(NCCc2ccccc2F)cnn1-c1c(Cl)cccc1Cl is 0.1 to 20 µM

IC50 on UniProt:Q16539 for O=c1c(Br)c(N[C@@H](CO)c2ccccc2)cnn1-c1c(Cl)cccc1Cl is > 100 µM

IC50 on UniProt:Q16539 for CC(C)c1ccccc1Sc1cnn(Cc2ccccc2)c(=O)c1Br is > 100 µM

IC50 on UniProt:Q16539 for O=c1c(Br)c(OCc2ccccc2CCl)cnn1-c1c(Cl)cccc1Cl is 0.1 to 20 µM

IC50 on UniProt:Q16539 for O=c1c(Br)c(NCC(O)c2ccccc2)cnn1-c1c(Cl)cccc1Cl (stereo unspecified) is 0.1 to 20 µM

IC50 on UniProt:Q16539 for O=c1c(Br)c(NCCc2ccccc2)cnn1-c1c(Cl)cccc1Cl is 0.1 to 20 µM

IC50 on UniProt:Q16539 for O=c1c(Br)c(N[C@@H]2C[C@H]2c2ccccc2)cnn1-c1c(Cl)cccc1Cl is > 100 µM

IC50 on UniProt:Q16539 for CN(CCc1ccccc1)c1cnn(-c2c(Cl)cccc2Cl)c(=O)c1Br is 20 to 40 µM

====

Reported IC50 by item:
Molecular target: MAPK14 (human) (UniProt Q16539)
Sequence (Q16539 whole entry, looked up): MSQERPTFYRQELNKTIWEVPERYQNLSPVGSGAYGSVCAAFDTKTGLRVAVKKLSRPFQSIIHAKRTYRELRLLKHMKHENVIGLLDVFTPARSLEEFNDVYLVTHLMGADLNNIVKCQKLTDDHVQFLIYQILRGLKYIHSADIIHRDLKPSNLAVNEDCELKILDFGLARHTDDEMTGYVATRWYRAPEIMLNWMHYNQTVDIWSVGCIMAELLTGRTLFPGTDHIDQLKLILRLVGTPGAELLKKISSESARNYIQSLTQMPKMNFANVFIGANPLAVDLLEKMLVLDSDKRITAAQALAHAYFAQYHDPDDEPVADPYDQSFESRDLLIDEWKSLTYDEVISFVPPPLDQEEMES

The cases that follow already have their IC50 on record.
| COMPOUND | IC50 |
| --- | --- |
| O=c1c(Br)c(N[C@H](CO)c2ccccc2)cnn1-c1c(Cl)cccc1Cl | 0.1 to 20 µM |
| CN(C)CCn1ncc(OCCc2ccccc2)c(Br)c1=O | > 100 µM |
| O=c1c(Br)c(OCc2ccc(F)cc2F)cnn1Cc1ccncc1 | 0.1 to 20 µM |
| O=c1c(Br)c(OCc2ccc(F)cc2)cnn1-c1c(Cl)cccc1Cl | 0.1 to 20 µM |
| O=c1c(Br)c(NCC(CCO)c2ccc(Cl)cc2)cnn1-c1c(Cl)cccc1Cl (centres undefined) | > 100 µM |
| O=c1c(Br)c(NCc2ccccc2)cnn1-c1c(Cl)cccc1Cl | 0.1 to 20 µM |
| CS(=O)(=O)OCc1ccccc1COc1cnn(-c2c(Cl)cccc2Cl)c(=O)c1Br | 0.1 to 20 µM |
| O=c1c(Br)c(NCC2CCCO2)cnn1-c1c(Cl)cccc1Cl (centres undefined) | > 100 µM |

IC50 on MAPK14 (human) (UniProt Q16539) for O=c1c(Br)c(OCc2ccccc2CO)cnn1-c1c(Cl)cccc1Cl is 0.1 to 20 µM

IC50 on MAPK14 (human) (UniProt Q16539) for O=c1c(Br)c(OCc2ccc(F)cc2F)cnn1-c1c(Cl)c[n+]([O-])cc1Cl is 0.1 to 20 µM

IC50 on MAPK14 (human) (UniProt Q16539) for O=c1c(Br)c(O)cnn1-c1c(Cl)cccc1Cl is > 100 µM

IC50 on MAPK14 (human) (UniProt Q16539) for O=c1c(Br)c(N2CCN(c3ccc(F)cc3)CC2)cnn1-c1c(Cl)cccc1Cl is > 100 µM

IC50 on MAPK14 (human) (UniProt Q16539) for O=c1c(Br)c(OCCc2ccccc2)cnn1Cc1ccncc1 is > 100 µM

IC50 on MAPK14 (human) (UniProt Q16539) for O=c1c(Br)c(NC(CO)Cc2ccccc2)cnn1-c1c(Cl)cccc1Cl (centres undefined) is > 100 µM
